Target: UniProt:Q86PR3
Sequence (Q86PR3 whole entry): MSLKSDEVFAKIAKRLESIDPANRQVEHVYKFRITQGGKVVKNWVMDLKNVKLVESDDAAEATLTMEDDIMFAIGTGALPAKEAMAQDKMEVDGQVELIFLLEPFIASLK
Assay: Inhibition of NBD-cholesterol binding to recombinant Aedes aegypti SCP-2 protein by fluorescence based assay
Listed here are compounds together with their documented pEC50.
Reminder that pEC50 is minus the log10 of a molar concentration.

- Compound Structure: "COc1ccc(OC/C=N/NC(N)=S)cc1"
  Target System: "UniProt:Q86PR3"
  Reported Result: 6.22

Could you tell me which pEC50 is on file for NC(=S)N/N=C/c1ccc(O)cc1 ?
5.30

====

Assay: Cytotoxicity against BALB/c mouse splenocytes assessed as reduction in cell viability incubated for 24 hrs by beta-radiation counting based [3H]-thymidine incorporation assay
Parameters: species or system Splenocyte
Consider the following compounds and their measured MNTC at 24 h readings.

Known MNTC at 24 h results, listed for orientation:
- Compound Structure: "N/C(S)=N/N=C/c1ccc(Cl)c(Cl)c1"
  Result Type: "MNTC at 24 h"
  Reported Result: "20.2 µM"
- Compound Structure: "NC(=O)N/N=C/c1ccc(F)cc1"
  Result Type: "MNTC at 24 h"
  Reported Result: "> 55.1 µM"

Could you now look at the following compound, please?
Query: MNTC at 24 h; subject: NC(=S)N/N=C/COc1ccc(Cl)c(Cl)c1
89.8 µM

Values were extracted from ChEMBL document CHEMBL3588801.
